Would you kindly list composite z-score for each of these compounds?
assay.info: small molecules captured by biotinylated probe aFSTL3 – biochemical, small-molecule microarray, fluorescence 635/667, stem cell growth factor project, primary screen (AID 1064);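 also: measures binding of the biotinylated anti-FSTL3 antibody to printed compounds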
measurement.context: higher = more signal

Ask | Which composite z-score is reported for this compound? `CC(C)(C)OC(=O)CC[C@@]1(C(=O)NCCN2CCOCC2)N=C(c2ccc(OCCCO)cc2)O[C@@H]1c1ccccc1CN=[N+]=[N-]`
Reply | 0.202

Ask | Which composite z-score is reported for this compound? CC1CC/C=C\[C@H]2OC34C=CCN(CCN5CCOCC5)C(=O)[C@H]3N(CCCO)C(=O)[C@@H]4C2C(=O)O1 (some centres undefined)
Reply | -0.215

Ask | Which composite z-score is reported for this compound? `O=C1C[C@@](C(=O)O)(c2ccc([N+](=O)[O-])cc2)[C@@H](c2ccc(CO)cc2)N1C1CCCCC1`
Reply | -0.0207

Ask | Which composite z-score is reported for this compound? `CCCN1C(=O)[C@]2(CCC(=O)OC(C)(C)C)N=C(c3ccc(OCCCO)cc3)O[C@@H]2c2ccccc21`
Reply | 0.678

Ask | Which composite z-score is reported for this compound? `COC(=O)[C@@]1(Cc2ccccc2)[C@H]2c3cc(C(=O)N(C)C)n(Cc4ccc(C(F)(F)F)nc4)c3C[C@H]2CN1C(=O)c1ccccc1`
Reply | 0.261

Ask | Which composite z-score is reported for this compound? `CN(C)CCCNC(=O)[C@@]1(Cc2ccccc2I)c2ccccc2C(=O)N(C2CCCCC2)[C@H]1c1ccc(CO)cc1`
Reply | 1.13

Ask | Which composite z-score is reported for this compound? `O=C1O[C@@H](c2ccccc2)[C@@H](c2ccccc2)N2[C@@H](c3ccc(OCCO)cc3)[C@]3(C(=O)Nc4ccc(C#CCCO)cc43)[C@@H](C(=O)O)[C@H]12`
Reply | 1.47

Ask | Which composite z-score is reported for this compound? `COCCOC(=O)N1C(=O)[C@@]2(c3cc(C#CCCO)ccc31)[C@H](c1ccc(OCCO)cc1)N1[C@H](c3ccccc3)[C@H](c3ccccc3)OC(=O)[C@H]1[C@@H]2C(=O)N1CCCCCCC1`
Reply | 3.17

Ask | Which composite z-score is reported for this compound? NC(=O)N1C(=O)C2C(C1=O)C1C=C(CCCO)C2C(C2CC2)N1Cc1sc2ccccc2c1Cl (centres undefined)
Reply | -0.4

Ask | Which composite z-score is reported for this compound? `C=CCOC(=O)[C@H]1[C@@H]2C(=O)O[C@@H](c3ccccc3)[C@@H](c3ccccc3)N2[C@@H](c2ccc(OCCOC(=O)[C@@H]3C[C@@H]4C(=O)N[C@@H](CCCCNC(C)=O)C(=O)N4[C@@H]3c3cccc(OCCO)c3)cc2)[C@]12C(=O)Nc1ccccc12`
Reply | 0.125

Ask | Which composite z-score is reported for this compound? CC1CC/C=C\[C@H]2OC34C=CCN(Cn5nnc6ccccc65)C(=O)[C@H]3N(CCCCCCO)C(=O)[C@@H]4C2C(=O)O1 (some centres undefined)
Reply | 0.372

Ask | Which composite z-score is reported for this compound? `CCCCC(=C=CC[C@H](O)c1ccc(CO)o1)CCO`
Reply | -0.388

Ask | Which composite z-score is reported for this compound? [N-]=[N+]=Nc1ccccc1[C@H]1OC(c2ccc(OCCCO)cc2)=N[C@@]1(Cc1ccccc1)C(=O)NCC(O)CO (some centres undefined)
Reply | 0.277

Ask | Which composite z-score is reported for this compound? `COC(=O)[C@@]1(Cc2ccccc2)[C@H]2c3cc(C(=O)N(C)C)n(CCO)c3C[C@H]2CN1C(=O)c1ccccc1`
Reply | 0.348

====

measurement.target: Luciferin 4-monooxygenase (Photinus pyralis) (UniProt P08659)
Sequence (P08659 whole entry, looked up): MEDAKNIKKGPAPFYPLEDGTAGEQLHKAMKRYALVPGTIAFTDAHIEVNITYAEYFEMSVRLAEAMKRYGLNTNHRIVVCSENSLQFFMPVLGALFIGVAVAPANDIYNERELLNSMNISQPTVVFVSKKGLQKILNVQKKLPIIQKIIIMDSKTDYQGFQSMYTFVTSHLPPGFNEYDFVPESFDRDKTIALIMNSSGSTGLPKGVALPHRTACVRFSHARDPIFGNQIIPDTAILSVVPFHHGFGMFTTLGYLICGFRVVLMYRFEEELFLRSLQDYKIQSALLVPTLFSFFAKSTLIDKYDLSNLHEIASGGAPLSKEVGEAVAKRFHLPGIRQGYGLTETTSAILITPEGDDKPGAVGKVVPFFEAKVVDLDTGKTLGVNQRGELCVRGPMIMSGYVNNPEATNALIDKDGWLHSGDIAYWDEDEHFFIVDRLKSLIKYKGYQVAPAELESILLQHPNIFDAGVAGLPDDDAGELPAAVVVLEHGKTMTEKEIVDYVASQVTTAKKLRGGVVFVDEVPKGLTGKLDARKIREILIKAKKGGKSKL
assay.info: inhibition of purified Photinus pyralis luciferase – biochemical, luminescence, purified enzyme, 2006 set, primary screen (AID 1141);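 also: cell-free assay with purified firefly luciferase at 100 ng per well in PBS; test concentration not given here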
measurement.context: purified firefly luciferase, SteadyGlo luminescence, 30 min; higher = more signal, called active from +8 up or from −8 down
So basically, the class depends on measured z-score, and the ranges are class 1: < -0.4; class 2: ≥ -0.4 and < 0.7; class 3: ≥ 0.7

Ask | Which z-score category applies to `O=C(NCc1ccccc1)[C@@H]1c2ccccc2C(=O)N(Cc2cc(C(F)(F)F)cc(C(F)(F)F)c2)[C@H]1c1ccc(CO)cc1` here?
Reply | class 3

Ask | Which z-score category applies to `CN(C)CCCC[C@@H]1NC(=O)[C@H]2C[C@@H](C(=O)O)[C@@H](c3ccc(O)cc3)N2C1=O` here?
Reply | class 2

Ask | Which z-score category applies to `[N-]=[N+]=Nc1ccccc1[C@@H]1OC(c2ccc(OCCCO)cc2)=N[C@]1(Cc1ccccc1)C(=O)NCCN1CCOCC1` here?
Reply | class 1

Ask | Which z-score category applies to `Cc1ccc(N2C(=O)c3ccccc3[C@](C)(C(=O)NCCCN(C)C)[C@@H]2c2ccc(CO)cc2)nc1` here?
Reply | class 2

Ask | Which z-score category applies to `COCCn1c(C(=O)N(C)C)cc2c1C[C@H]1CN(C(=O)c3ccccc3)[C@@](Cc3ccc(OC)cc3)(C(=O)OC)[C@@H]21` here?
Reply | class 3

Ask | Which z-score category applies to `C=CCNC(=O)[C@H]1[C@@H]2C(=O)O[C@@H](c3ccccc3)[C@@H](c3ccccc3)N2[C@@H](c2ccc(OCCO)cc2)[C@]12C(=O)Nc1ccccc12` here?
Reply | class 2

Ask | Which z-score category applies to CN1C(=O)C2C(C1=O)C1C=C(CCCO)C2C(C2CC2)N1Cc1cccc(OC(F)(F)F)c1 (stereo unspecified) here?
Reply | class 1

Ask | Which z-score category applies to CCN(CC)c1ccc(N2CC=CC34O[C@@H]5C=CCCOC(=O)C5[C@H]3C(=O)N(C(C)CO)[C@@H]4C2=O)cc1 (stereo partly specified) here?
Reply | class 1

Ask | Which z-score category applies to COc1cc(OC)c(C(O)C2C=CC3C(=O)N(c4ccccc4)C(=O)C3N2Nc2ccc(C(C)C)cc2)cc1Br (stereo unspecified) here?
Reply | class 1

Ask | Which z-score category applies to `O=C1[C@H]2C=C(I)[C@H](C[C@@H]2c2ccccc2)[C@@]12CO2` here?
Reply | class 2

Ask | Which z-score category applies to `COC(=O)[C@H](Cc1ccc(O)cc1)N[C@@H](/C=C/C1CC1)[C@H](O)Cc1ccccc1` here?
Reply | class 2

Ask | Which z-score category applies to `COc1cc(CO)cc(I)c1O[C@H]1C=C(C(=O)NCCO)C[C@@H]2O[C@H]12` here?
Reply | class 3

Ask | Which z-score category applies to `COC(=O)[C@@]1(Cc2ccccc2)[C@H]2c3cc(C(=O)N4CCCC4)n(Cc4ccc(OC)c(OC)c4)c3C[C@H]2CN1C(=O)c1ccccc1` here?
Reply | class 3

Ask | Which z-score category applies to `[N-]=[N+]=Nc1ccccc1C[C@@]1(C(=O)NCc2ccccc2)N=C(c2ccc(OCCCO)cc2)O[C@@H]1c1ccccc1N=[N+]=[N-]` here?
Reply | class 1

Ask | Which z-score category applies to `CC(C)[Si](C#CCCc1ccccc1)(O[C@H](c1ccccc1)c1cn(Cc2ccccc2)nn1)C(C)C` here?
Reply | class 3

====

measurement.target: NADPH oxidase 2 (Homo sapiens)
assay.info: compounds shifting NOX2 Amplex Red fluorescence – cell-based, HEK293-NOX2, PMA-stimulated, NOX inhibitor project, primary screen (AID 1159); also: test concentration not given here
measurement.context: 45 min, higher = more signal, called active from +8 up or from −8 down
assay.endpoint: z-score
Give only the figure.

Ask | Which z-score is reported for this molecule? `C=C(COC)C(=O)CC[C@@H](OC(=O)c1ccccc1-c1ccccc1C(=O)O)c1ccc(OCCO)cc1`
Reply | 0.849

Ask | Which z-score is reported for this molecule? `CCCC[C@H]1OB(O)C[C@H]2C1=C(COc1ccccc1)C[C@H]1C(=O)C=CC(=O)[C@H]12`
Reply | -0.429

Ask | Which z-score is reported for this molecule? `COc1ccccc1CN1C(=O)c2ccccc2[C@](Cc2ccccc2I)(C(=O)NCC(C)C)[C@@H]1c1ccc(CO)cc1`
Reply | -0.943

Ask | Which z-score is reported for this molecule? CC1CC/C=C\[C@H]2OC34C=CCN(Cc5ccccc5)C(=O)[C@H]3N(CCCCCCO)C(=O)[C@@H]4C2C(=O)O1 (stereo partly drawn)
Reply | 1.71

Ask | Which z-score is reported for this molecule? `CC(C)C(=C=CC[C@H](O)c1ccccc1OCCO)C[C@H](O)COCc1ccccc1`
Reply | -1.34

Ask | Which z-score is reported for this molecule? CC(C)=CCCC(C)=CC(O)C1C=CC2C(=O)NC(=O)C2N1Nc1ccc(Cl)cc1Cl (stereo not drawn)
Reply | -1.84

Ask | Which z-score is reported for this molecule? `COc1ccc([Si](C)(C)[C@H]2[C@H](CC(=O)N3Cc4ccccc4C[C@H]3CO)O[C@@]3(C(=O)N(c4ccccc4)c4ccccc43)[C@@H]2C)cc1`
Reply | -1.56

Ask | Which z-score is reported for this molecule? `[N-]=[N+]=Nc1ccccc1[C@@H]1OC(c2ccc(OCCCO)cc2)=N[C@]1(Cc1ccccc1)C(=O)NCCN1CCOCC1`
Reply | -3.29

These measurements were taken from PubChem BioAssay.
